test: in vitro; details: human, hela cells, % viability
MEASURED ENDPOINT: viability at 28.5 h, 10 µM (%)
Enter your answer as a number in %; do not include the unit.

// below: answered molecules
INSERT INTO results (molecule, unit_abbrev, endpoint_value) VALUES
  ('Cc1nn(C)cc1C(C)NC(=O)C1(c2ccccc2F)CCOCC1 (stereo not drawn)', '%', 80.8),
  ('COc1ccc(C2=NN(c3ccccc3)C(c3ccc(OC)c(OC)c3C(=O)O)C2)cc1 (stereo not drawn)', '%', 89.3),
  ('O=C(Nc1cccnc1)C1c2ccccc2Oc2ccccc21', '%', 98.6);

Input: Dear colleague, please send me the reported viability at 28.5 h, 10 µM for `Cc1c(C(=O)Nc2nccs2)nnn1-c1ccccc1` when you can.
Output: 83.9

Input: Dear colleague, please send me the reported viability at 28.5 h, 10 µM for CSCCC(NC=C1C(=O)CC(C)(C)CC1=O)C(=O)O (stereo not drawn) when you can.
Output: 92.9

Input: Dear colleague, please send me the reported viability at 28.5 h, 10 µM for CN1CCN(c2cc(-c3ccncc3)nc3ccccc23)CC1 [CBK050976B] when you can.
Output: 89.1
